target: 5-HT1A receptor (Homo sapiens (Human)); test: Affinity for human 5-HT1A receptor ([3H]8-OH-DPAT binding, HEK-293 cell homogenates); conditions: read-out: Ki, binding affinity for 5-HT1A receptor; 0.3 nM [3H]8-OH-DPAT, human HEK-293 cell homogenates, 22° C., 60 minutes
Sequence (P08908 whole entry): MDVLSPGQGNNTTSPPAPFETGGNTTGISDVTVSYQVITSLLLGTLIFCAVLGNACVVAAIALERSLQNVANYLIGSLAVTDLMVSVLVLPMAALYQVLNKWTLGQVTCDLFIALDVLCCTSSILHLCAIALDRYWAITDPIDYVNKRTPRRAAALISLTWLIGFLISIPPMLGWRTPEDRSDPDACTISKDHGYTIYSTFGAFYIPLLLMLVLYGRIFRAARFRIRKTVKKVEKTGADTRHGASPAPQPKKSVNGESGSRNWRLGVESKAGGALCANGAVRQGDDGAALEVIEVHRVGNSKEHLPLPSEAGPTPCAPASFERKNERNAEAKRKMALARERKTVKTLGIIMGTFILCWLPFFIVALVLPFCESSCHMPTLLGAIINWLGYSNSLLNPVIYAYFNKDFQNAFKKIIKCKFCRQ
pKi: −log10 of the molar value.
Each entry gets NOT MET if its pKi stays under 9, and MET if its pKi is 9 or above.

Worked examples, 2 compounds total:
Cc1nc(N2CCN(CCCc3c[nH]c4ccc(F)cc34)CC2)sc1C(N)=O: NOT MET
N#Cc1ccnc(N2CCN(CCCc3c[nH]c4ccc(F)cc34)CC2)n1: NOT MET

(Q) Is pKi at least 9? Consider COc1ccc2[nH]cc(CCCN3CCN(c4nc(OC)cc(OC)n4)CC3)c2c1
(A) MET

(Q) Is pKi at least 9? Consider Fc1ccc2[nH]cc(CCCCN3CCN(c4nccc(C(F)(F)F)n4)CC3)c2c1
(A) NOT MET

(Q) Is pKi at least 9? Consider N#Cc1ccc2[nH]cc(CCCCN3CCN(c4nccc(C#N)n4)CC3)c2c1
(A) NOT MET

(Q) Is pKi at least 9? Consider COc1cc(OC)nc(N2CCN(CCCc3c[nH]c4ccc(F)cc34)CC2)n1
(A) NOT MET

====

Molecular target: serotonin transporter (Rattus norvegicus (Rat), UniProt P31652)
Sequence (P31652 whole entry): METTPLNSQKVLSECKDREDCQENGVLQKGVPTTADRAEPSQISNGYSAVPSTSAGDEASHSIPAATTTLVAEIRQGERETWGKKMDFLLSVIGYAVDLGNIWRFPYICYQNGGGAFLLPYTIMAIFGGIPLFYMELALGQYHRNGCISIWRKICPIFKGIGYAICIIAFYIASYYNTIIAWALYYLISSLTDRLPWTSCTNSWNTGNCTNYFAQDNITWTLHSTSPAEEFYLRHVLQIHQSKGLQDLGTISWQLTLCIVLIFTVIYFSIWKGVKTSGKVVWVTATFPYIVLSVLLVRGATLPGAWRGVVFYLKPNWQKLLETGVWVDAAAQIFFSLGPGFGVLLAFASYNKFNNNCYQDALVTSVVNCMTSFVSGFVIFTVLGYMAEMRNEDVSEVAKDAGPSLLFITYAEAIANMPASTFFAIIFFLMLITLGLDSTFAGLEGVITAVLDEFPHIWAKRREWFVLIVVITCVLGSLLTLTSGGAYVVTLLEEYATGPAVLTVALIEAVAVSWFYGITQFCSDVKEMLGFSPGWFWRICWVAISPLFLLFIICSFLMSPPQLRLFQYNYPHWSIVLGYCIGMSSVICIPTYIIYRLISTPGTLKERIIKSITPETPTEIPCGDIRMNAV
Experiment: Inhibitory effect on [3H]5-HT uptake in rat synaptosome
Conditions: rat brain synaptosomes, 37° C., 15 minutes, 0.1 μCi [3H]5-HT
Method: The synaptosomes (150 μg) prepared from the rat brain were incubated at 37° C. for 15 minutes with 0.1 μCi [^3H]5-HT in the absence or presence of the test compound or the reference compound in a buffer solution containing 106.2 mM NaCl, 4.5 mM KCl, 2.25 mM MgSO4, 1.08 mM NaH2PO4, 22.5 mM NaHCO3, 9.9 mM glucose, 9 μM EGTA and 45 μM ascorbic acid (pH 7.4). Inhibition of serotonin transporter in rat synaptosome was measured by the concentrations of [^3H]5-HT.
REPORTED PROPERTY: IC50 (nM)
Dear colleague, please return just the value in nM, with no unit written.

Cc1cc(C)nc(N2CCN(CCCc3c[nH]c4ccc(F)cc34)CC2)n1: 7.9
N#Cc1ccc2[nH]cc(CCCCN3CCN(c4nccc(C(N)=O)n4)CC3)c2c1: 1
Cc1nc(N2CCN(CCCc3c[nH]c4ccc(C#N)cc34)CC2)sc1C#N: 7.7
Cc1cc(C)nc(N2CCN(CCCCc3c[nH]c4ccccc34)CC2)n1: 82

Consider the additional molecule presented here.
(Q) IC50 of N#Cc1ccc2[nH]cc(CCCN3CCN(c4nccc(C(N)=O)n4)CC3)c2c1 on serotonin transporter (Rattus norvegicus (Rat), UniProt P31652)?
(A) 0.75

====

Target: serotonin transporter (Rattus norvegicus (Rat), UniProt P31652)
Test: Inhibitory effect on [3H]5-HT uptake in rat synaptosome
Details: rat brain synaptosomes, 37° C., 15 minutes, 0.1 μCi [3H]5-HT
Experimental: The synaptosomes (150 μg) prepared from the rat brain were incubated at 37° C. for 15 minutes with 0.1 μCi [^3H]5-HT in the absence or presence of the test compound or the reference compound in a buffer solution containing 106.2 mM NaCl, 4.5 mM KCl, 2.25 mM MgSO4, 1.08 mM NaH2PO4, 22.5 mM NaHCO3, 9.9 mM glucose, 9 μM EGTA and 45 μM ascorbic acid (pH 7.4). Inhibition of serotonin transporter in rat synaptosome was measured by the concentrations of [^3H]5-HT.
Criterion: IC50 strictly less than 7 nM. Met: class 1. Not met: class 0.

Cc1nc(N2CCN(CCCc3c[nH]c4ccc(C#N)cc34)CC2)sc1C(N)=O: class 1

(Q) API: query returns whether the molecule falls strictly under 7 nM in IC50. Query: Cc1cc(C)nc(N2CCN(CCCCc3c[nH]c4ccc(F)cc34)CC2)n1
(A) class 0

(Q) API: query returns whether the molecule falls strictly under 7 nM in IC50. Query: COc1cc(C)nc(N2CCN(CCCCc3c[nH]c4ccc(C#N)cc34)CC2)n1
(A) class 1

(Q) API: query returns whether the molecule falls strictly under 7 nM in IC50. Query: COc1cc(OC)nc(N2CCN(CCCCc3c[nH]c4ccc(C#N)cc34)CC2)n1
(A) class 0

(Q) API: query returns whether the molecule falls strictly under 7 nM in IC50. Query: N#Cc1ccc2[nH]cc(CCCN3CCN(c4ncc(F)cn4)CC3)c2c1
(A) class 0

(Q) API: query returns whether the molecule falls strictly under 7 nM in IC50. Query: Cc1nc(N2CCN(CCCc3c[nH]c4ccc(F)cc34)CC2)sc1C#N
(A) class 0

(Q) API: query returns whether the molecule falls strictly under 7 nM in IC50. Query: CC1CN(c2nccc(C(N)=O)n2)CCN1CCCc1c[nH]c2ccc(C#N)cc12 (stereo not drawn)
(A) class 1

(Q) API: query returns whether the molecule falls strictly under 7 nM in IC50. Query: N#Cc1ccc2[nH]cc(CCCCN3CCN(c4nccc(C#N)n4)CC3)c2c1
(A) class 1

(Q) API: query returns whether the molecule falls strictly under 7 nM in IC50. Query: COc1cc(OC)nc(N2CCN(CCCCc3c[nH]c4ccc(F)cc34)CC2)n1
(A) class 1

(Q) API: query returns whether the molecule falls strictly under 7 nM in IC50. Query: Fc1ccc2[nH]cc(CCCCN3CCN(c4nccc(C(F)(F)F)n4)CC3)c2c1
(A) class 0

====

The entries below are paired with their reported pIC50.
target: UniProt P31652; experiment: Inhibitory effect on [3H]5-HT uptake in rat synaptosome; settings: rat brain synaptosomes, 37° C., 15 minutes, 0.1 μCi [3H]5-HT
Schema: pIC50 number; meaning minus log10 of the concentration expressed in molar units.

Sample answers from the record:
N#Cc1ccc2[nH]cc(CCCN3CCN(c4nccc(C(F)(F)F)n4)CC3)c2c1: 8.23
N#Cc1ccc2[nH]cc(CCCN3CCN(c4nccc(C#N)n4)CC3)c2c1: 8.59
Cc1cc(C)nc(N2CCN(CCCc3c[nH]c4ccc(Cl)cc34)CC2)n1: 7.51

Consider the additional compound presented here.
(Q) Please report the recorded pIC50 for N#Cc1ccnc(N2CCN(CCCCc3c[nH]c4ccc(F)cc34)CC2)n1 .
(A) 8.21

====

The entries below are paired with their reported Ki.
target: 5-HT1A receptor (Homo sapiens (Human)); assay: Affinity for human 5-HT1A receptor ([3H]8-OH-DPAT binding, HEK-293 cell homogenates); conditions: read-out: Ki, binding affinity for 5-HT1A receptor; 0.3 nM [3H]8-OH-DPAT, human HEK-293 cell homogenates, 22° C., 60 minutes;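 also: Filter-retained radioactivity counted by scintillation, non-specific binding defined with 10 µM 8-OH-DPAT, Ki derived from percent inhibition of specific radioligand binding versus control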

Fc1ccc2[nH]cc(CCCN3CCN(c4nccc(C(F)(F)F)n4)CC3)c2c1: 1 nM
COc1cc(C)nc(N2CCN(CCCCc3c[nH]c4ccc(C#N)cc34)CC2)n1: 0.65 nM
CCOC(=O)c1sc(N2CCN(CCCCc3c[nH]c4ccc(C#N)cc34)CC2)nc1C: 0.79 nM

(Q) Please report the recorded Ki for Cc1nc(N2CCN(CCCc3c[nH]c4ccc(C#N)cc34)CC2)sc1C#N .
(A) 2.6 nM

(Q) Please report the recorded Ki for COc1cc(OC)nc(N2CCN(CCCc3c[nH]c4ccccc34)CC2)n1 .
(A) 4.8 nM

(Q) Please report the recorded Ki for CCOC(=O)c1sc(N2CCN(CCCc3c[nH]c4ccc(F)cc34)CC2)nc1C .
(A) 0.27 nM

(Q) Please report the recorded Ki for COc1ccc2[nH]cc(CCCCN3CCN(c4nc(C)cc(C)n4)CC3)c2c1 .
(A) 1.1 nM

(Q) Please report the recorded Ki for CCOC(=O)c1sc(N2CCN(CCCCc3c[nH]c4ccc(F)cc34)CC2)nc1C .
(A) 5.5 nM

(Q) Please report the recorded Ki for Cc1nc(N2CCN(CCCCc3c[nH]c4ccc(C#N)cc34)CC2)sc1C#N .
(A) 5 nM

(Q) Please report the recorded Ki for COc1ccc2[nH]cc(CCCN3CCN(c4nc(C)cc(C)n4)CC3)c2c1 .
(A) 0.29 nM

====

target: serotonin transporter (Rattus norvegicus (Rat), UniProt P31652); assay: Inhibitory effect on [3H]5-HT uptake in rat synaptosome; conditions: rat brain synaptosomes, 37° C., 15 minutes, 0.1 μCi [3H]5-HT
pIC50: −log10 of the molar value.
Each entry gets -1 if its pIC50 stays under 8, and 1 if its pIC50 is 8 or above.

Worked examples, 5 compounds total:
CCOC(=O)c1sc(N2CCN(CCCCc3c[nH]c4ccc(C#N)cc34)CC2)nc1C: 1
N#Cc1ccc2[nH]cc(CCCCN3CCN(c4ncc(F)cn4)CC3)c2c1: 1
Cc1nc(N2CCN(CCCCc3c[nH]c4ccc(C#N)cc34)CC2)sc1C#N: 1
COc1cc(OC)nc(N2CCN(CCCc3c[nH]c4ccccc34)CC2)n1: -1
COc1cc(OC)nc(N2CCN(CCCc3c[nH]c4ccc(C#N)cc34)CC2)n1: 1

Okay, now this compound:
(Q) Is pIC50 at least 8? Consider COc1cc(OC)nc(N2CCN(CCCc3c[nH]c4ccc(Cl)cc34)CC2)n1
(A) -1
